targetUnderTest: T1, RSV postfusion F (postF), subtype A (respiratory syncytial virus, subtype A, UniProt P03420 26-513)
T1 construct: also called F ΔFP; Postfusion subtype A
assayNotes: BLI, IgG
pKd: −log10 of the molar value.

{"columns": ["binder", "pKd"],
 "data": [
  ["ADI-21061 (antibody, V domains shown) VH: QVQLVQSGAEVKKPGSSVKVSCKASGGTFSNYPISWVRQAPGHGLEWMGRVVPTVGLANYAQNLQGRVTITADTSTNTVYMELRSLRSEDTGLYYCARRAVVDTYAFDIWGQGTLVTVSS VL: QSALIQPASVSGFPGQSITISCTGASSDVGGYNFVSWYQQHPGKAPKLIIYEVTKRPSGVSNRFSGSESGNTASLTISGLQAEDEADYYCSSFRYTSSIVYVFGSGTKVTVL", 9.85],
  ["ADI-20976 (antibody, V domains shown) VH: QVQLVESGGDLVQKGGSLRLSCAASGFTFDNYAMTWIRQAPGQGLEWVSTVSGFVLGTGYTTYYADSVKGRFTISRDSSKNTVYLQLNSLRAEDTAVYYCAKCAATRNECLWDYLQQWGQGTTVTVSS VL: EIVMTQSPSSLSASVGDRVTITCRASQSVSIYLNWYQQKGGKAPKLLIYGASALQRGVPSRFSGSGSGTDFTLTITSLQPEDFATYFCHQSYSAPQTFGQGTKVDIK", 9.58],
  ["ADI-20975 (antibody, V domains shown) VH: QVQLVESGTHVKKPGASVKVSCEASDDTFNNKGIVWVRQAPGQGLEWMGWIRPNNGNTKYAQKFQGRVTMTTDASTNTAYMELRSLRSGDTAVYYCAREQFKWNDFYFDYWGQGILVTVSS VL: SYELMQPPSVSVAPGQTATITCGGSNIGSETVHWYQQKPGQAPVLVVHDDTDRPSGIPERFSGSNSGNTATLTISGVEAGDEADFYCQVRDSRTDDVVFGGGTKLTVL", 9.84],
  ["ADI-14599 (antibody, V domains shown) VH: EVQLVESGGGLVQPGRSLRLSCKTSGFTFGDYAMSWVRQAPGQGLDWVGFIRTKAYGGTTEYAASVKGRFTLSRDDSKSIAYLQMNSLKTEDTAVYYCKSGGQFDYWGRGTLVTVSS VL: NFMLTQPHSVSGSPGKTVTISCTGSSGSIASNYVQWYQQRPGSAPTTVICEDNQRPSGVPDRFSGSIDSSSNSASLTISGLKTEDEADYYCQSYDRSNQEVFGGGTKLTVL", 9.20],
  ["ADI-20968 (antibody, V domains shown) VH: QVQLQQWGAGLLKPSETLSLTCAMYGGSFSDDYWSWIRQPPGKGLEWIGEVNHGGSTNYNTSLKSRVTISADTSKKQFSLKLRSVTAADTAVYFCARGWRYCNATTCYSKAFDIWGQGTMVTVSS VL: DIQMTQSPSSLSASVGDRVTITCQASQDIDIYLIWYQQKPGRAPKLLIYDASNLKTGVPSRFSGSGSGTEFTFTINNLQPEDFATYYCQQFHDLPLTFGGGTKLEIK", 9.80]
]}
